Below, each entry is listed with its recorded remaining activity at 1 µM.
Molecular target: panel of 442 kinases (Homo sapiens)
Construct: purchased Ambit Biosciences (scanMAXX KINOMEscan)
Assay: biochemical
Assay type: binding
Settings: CDK9; 1 µM; read-out: % of control at 1 µM
Kindly answer with a numeric value in %, unit omitted.

Field: example entries. Status: answers known.
FC(F)c1nc2ccccc2n1-c1nc(N2CCOCC2)nc(N2CCOCC2)n1 [ZSTK474]: 100
Nc1cc(C(F)(F)F)c(-c2cc(N3CCOCC3)nc(N3CCOCC3)n2)cn1 [Buparlisib]: 85
COc1ncc(-c2ccc3nccc(-c4ccnnc4)c3c2)cc1NS(=O)(=O)c1ccc(F)cc1F [Omipalisib]: 100

Proceed to the following item.
Task: GET /values?readout=remaining activity at 1 µM&system=panel of 442 kinases (Homo sapiens)&item= Cn1c(=O)n(-c2ccc(C(C)(C)C#N)cc2)c2c3cc(-c4cnc5ccccc5c4)ccc3ncc21 [Dactolisib]
Result: 91

* * *

Biological target: PI3Kβ (Homo sapiens, UniProt P42338)
Sequence (P42338 whole entry): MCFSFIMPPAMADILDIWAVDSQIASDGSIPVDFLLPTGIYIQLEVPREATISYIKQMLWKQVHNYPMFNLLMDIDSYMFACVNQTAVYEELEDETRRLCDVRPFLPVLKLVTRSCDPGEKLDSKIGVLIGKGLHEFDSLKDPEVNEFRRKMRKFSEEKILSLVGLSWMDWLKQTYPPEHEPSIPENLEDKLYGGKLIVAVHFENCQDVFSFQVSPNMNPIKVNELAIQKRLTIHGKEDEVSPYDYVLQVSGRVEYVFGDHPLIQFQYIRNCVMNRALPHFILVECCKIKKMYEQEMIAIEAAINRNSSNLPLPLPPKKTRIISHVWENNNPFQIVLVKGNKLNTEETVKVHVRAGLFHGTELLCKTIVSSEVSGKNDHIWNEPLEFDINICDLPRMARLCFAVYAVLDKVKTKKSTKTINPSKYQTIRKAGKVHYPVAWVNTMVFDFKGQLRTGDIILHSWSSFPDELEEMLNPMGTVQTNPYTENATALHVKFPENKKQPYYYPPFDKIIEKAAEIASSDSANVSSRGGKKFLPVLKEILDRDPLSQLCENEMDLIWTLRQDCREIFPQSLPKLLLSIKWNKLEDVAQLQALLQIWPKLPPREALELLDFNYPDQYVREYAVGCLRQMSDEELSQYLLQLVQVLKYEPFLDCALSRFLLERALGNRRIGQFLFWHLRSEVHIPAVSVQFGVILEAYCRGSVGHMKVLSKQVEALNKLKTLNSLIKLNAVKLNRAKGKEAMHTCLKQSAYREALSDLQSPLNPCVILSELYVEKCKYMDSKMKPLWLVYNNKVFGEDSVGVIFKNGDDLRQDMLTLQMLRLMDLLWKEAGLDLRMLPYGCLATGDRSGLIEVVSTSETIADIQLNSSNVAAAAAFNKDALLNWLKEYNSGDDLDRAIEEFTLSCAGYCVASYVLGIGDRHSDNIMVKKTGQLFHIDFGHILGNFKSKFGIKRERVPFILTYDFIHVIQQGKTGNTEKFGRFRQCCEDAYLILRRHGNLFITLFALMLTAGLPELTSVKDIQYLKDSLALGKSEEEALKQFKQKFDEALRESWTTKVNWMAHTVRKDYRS
Sequence (P27986 whole entry partner): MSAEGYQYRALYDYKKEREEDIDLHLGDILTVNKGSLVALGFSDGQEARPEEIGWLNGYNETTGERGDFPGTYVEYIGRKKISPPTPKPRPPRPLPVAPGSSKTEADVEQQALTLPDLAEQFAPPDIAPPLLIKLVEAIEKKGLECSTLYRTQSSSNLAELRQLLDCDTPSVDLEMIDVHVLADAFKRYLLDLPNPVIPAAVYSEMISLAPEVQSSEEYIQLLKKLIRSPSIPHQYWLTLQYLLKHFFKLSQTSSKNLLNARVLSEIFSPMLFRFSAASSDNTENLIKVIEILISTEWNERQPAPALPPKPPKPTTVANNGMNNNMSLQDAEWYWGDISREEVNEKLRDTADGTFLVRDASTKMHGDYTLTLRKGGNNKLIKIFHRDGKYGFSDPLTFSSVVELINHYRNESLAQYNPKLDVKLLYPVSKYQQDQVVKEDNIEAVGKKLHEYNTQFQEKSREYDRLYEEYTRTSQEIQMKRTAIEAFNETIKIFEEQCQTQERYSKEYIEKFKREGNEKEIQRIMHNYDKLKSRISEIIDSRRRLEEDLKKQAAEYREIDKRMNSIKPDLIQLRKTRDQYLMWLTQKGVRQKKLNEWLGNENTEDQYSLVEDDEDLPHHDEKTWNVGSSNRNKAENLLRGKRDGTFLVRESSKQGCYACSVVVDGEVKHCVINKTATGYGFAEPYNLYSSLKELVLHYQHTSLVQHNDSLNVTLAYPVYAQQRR
Test: PI3K (human) HTRF assay, PI3Kβ
Format: biochemical
Conditions: ATP 10 μM, mean ± SEM
pIC50: −log10 of the molar value.
Value Type: pIC50

Task: Need pIC50 of C=CS(=O)(=O)N1CCN(c2nc(N3CCOCC3)nc(-n3c(C(F)F)nc4c(OC)cccc43)n2)CC1 [M17] , thanks.
Result: < 6.00

* * *

Biological target: panel of 442 kinases (Homo sapiens, UniProt Q9Y463)
Construct: purchased Ambit Biosciences (scanMAXX KINOMEscan)
Sequence (Q9Y463 whole entry): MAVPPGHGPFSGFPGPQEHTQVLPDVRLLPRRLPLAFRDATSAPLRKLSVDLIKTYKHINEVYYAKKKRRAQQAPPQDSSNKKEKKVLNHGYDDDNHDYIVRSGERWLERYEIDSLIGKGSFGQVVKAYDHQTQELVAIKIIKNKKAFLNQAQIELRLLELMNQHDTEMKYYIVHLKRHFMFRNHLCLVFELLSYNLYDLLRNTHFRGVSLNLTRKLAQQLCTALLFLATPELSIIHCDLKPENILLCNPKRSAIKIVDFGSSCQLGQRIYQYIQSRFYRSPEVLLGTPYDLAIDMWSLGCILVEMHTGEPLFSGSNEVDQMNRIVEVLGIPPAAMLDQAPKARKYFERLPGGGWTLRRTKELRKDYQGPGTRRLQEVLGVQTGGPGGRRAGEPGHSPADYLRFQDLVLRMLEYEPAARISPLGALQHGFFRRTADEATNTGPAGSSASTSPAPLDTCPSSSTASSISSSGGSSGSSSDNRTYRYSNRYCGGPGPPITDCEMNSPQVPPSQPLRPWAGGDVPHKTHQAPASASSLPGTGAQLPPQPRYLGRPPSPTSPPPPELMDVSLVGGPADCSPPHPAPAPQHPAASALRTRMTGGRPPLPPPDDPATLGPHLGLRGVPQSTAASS
Assay: biochemical
Assay type: binding
Conditions: DYRK1B; 1 µM; read-out: % of control at 1 µM
Value Type: remaining activity at 1 µM (%)
Kindly answer with a numeric value in %, unit omitted.

Cn1c(=O)n(-c2ccc(C(C)(C)C#N)cc2)c2c3cc(-c4cnc5ccccc5c4)ccc3ncc21: 93
COc1ncc(-c2ccc3nccc(-c4ccnnc4)c3c2)cc1NS(=O)(=O)c1ccc(F)cc1F: 88
Nc1cc(C(F)(F)F)c(-c2cc(N3CCOCC3)nc(N3CCOCC3)n2)cn1: 86

Proceed to the following item.
Task: Need remaining activity at 1 µM of FC(F)c1nc2ccccc2n1-c1nc(N2CCOCC2)nc(N2CCOCC2)n1 , thanks.
Result: 97

* * *

Test: Plasma pharmacokinetics in dogs
Conditions: male, Beagle, dog, po, 10 mg/kg
Value Type: bioavailability
Write down the value, and be sure its unit follows.

Task: Need bioavailability of COc1cccc2c1nc(C(F)F)n2-c1nc(N2CCOCC2)nc(N2CCN(S(=O)(=O)CCN(C)C)CC2)n1 , thanks.
Result: 35.9%

* * *

Biological target: panel of 442 kinases (Homo sapiens, UniProt P00533)
Construct: purchased Ambit Biosciences (scanMAXX KINOMEscan)
Sequence (P00533 25-1210): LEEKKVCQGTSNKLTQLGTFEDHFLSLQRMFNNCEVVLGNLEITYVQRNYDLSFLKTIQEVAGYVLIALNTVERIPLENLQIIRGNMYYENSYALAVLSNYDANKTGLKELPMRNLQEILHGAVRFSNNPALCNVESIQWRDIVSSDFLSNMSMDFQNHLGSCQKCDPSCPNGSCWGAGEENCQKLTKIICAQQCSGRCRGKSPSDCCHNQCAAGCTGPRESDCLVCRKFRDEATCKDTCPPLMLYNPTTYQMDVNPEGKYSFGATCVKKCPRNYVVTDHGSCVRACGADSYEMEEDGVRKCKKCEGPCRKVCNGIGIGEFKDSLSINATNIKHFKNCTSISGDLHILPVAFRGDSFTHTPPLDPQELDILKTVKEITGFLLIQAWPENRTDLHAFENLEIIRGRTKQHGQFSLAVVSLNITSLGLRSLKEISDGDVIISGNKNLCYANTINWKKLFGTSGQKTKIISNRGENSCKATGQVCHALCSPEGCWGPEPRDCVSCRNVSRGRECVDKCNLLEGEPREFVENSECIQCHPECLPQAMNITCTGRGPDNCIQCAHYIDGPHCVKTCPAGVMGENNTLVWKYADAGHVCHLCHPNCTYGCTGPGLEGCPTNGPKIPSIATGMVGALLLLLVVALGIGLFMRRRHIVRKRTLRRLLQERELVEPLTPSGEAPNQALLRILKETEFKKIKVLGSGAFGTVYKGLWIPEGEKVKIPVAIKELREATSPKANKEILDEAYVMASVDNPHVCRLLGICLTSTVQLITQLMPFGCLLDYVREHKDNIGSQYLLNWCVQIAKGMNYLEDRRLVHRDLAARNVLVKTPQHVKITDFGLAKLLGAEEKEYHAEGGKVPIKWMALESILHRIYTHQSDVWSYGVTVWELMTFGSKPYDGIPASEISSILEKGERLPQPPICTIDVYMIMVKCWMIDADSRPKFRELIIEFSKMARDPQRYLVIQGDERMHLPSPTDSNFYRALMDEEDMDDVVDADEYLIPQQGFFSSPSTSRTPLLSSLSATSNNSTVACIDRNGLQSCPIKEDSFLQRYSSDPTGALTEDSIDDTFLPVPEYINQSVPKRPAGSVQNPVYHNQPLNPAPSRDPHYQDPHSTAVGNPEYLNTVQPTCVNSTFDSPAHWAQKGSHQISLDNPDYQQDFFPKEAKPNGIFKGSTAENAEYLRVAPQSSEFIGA
Test: biochemical
Format: binding
Settings: EGFR; 1 µM; read-out: % of control at 1 µM
Value Type: remaining activity at 1 µM
Write down the value, and be sure its unit follows.

Field: example entries. Status: answers known.
COc1ncc(-c2ccc3nccc(-c4ccnnc4)c3c2)cc1NS(=O)(=O)c1ccc(F)cc1F: 86%
Cn1c(=O)n(-c2ccc(C(C)(C)C#N)cc2)c2c3cc(-c4cnc5ccccc5c4)ccc3ncc21: 80%
Nc1cc(C(F)(F)F)c(-c2cc(N3CCOCC3)nc(N3CCOCC3)n2)cn1: 83%

Proceed to the following item.
Task: Need remaining activity at 1 µM of FC(F)c1nc2ccccc2n1-c1nc(N2CCOCC2)nc(N2CCOCC2)n1 , thanks.
Result: 94%
